Listed next: entries and their corresponding kon.
Biological target: T1, cynomolgus (cyno) ANGPT2 (cynomolgus, UniProt A0A2K5VNX6 275-496)
T1 construct: domain: FLD domain; also called cyno ANGPT2 FLD domain
T1 sequence: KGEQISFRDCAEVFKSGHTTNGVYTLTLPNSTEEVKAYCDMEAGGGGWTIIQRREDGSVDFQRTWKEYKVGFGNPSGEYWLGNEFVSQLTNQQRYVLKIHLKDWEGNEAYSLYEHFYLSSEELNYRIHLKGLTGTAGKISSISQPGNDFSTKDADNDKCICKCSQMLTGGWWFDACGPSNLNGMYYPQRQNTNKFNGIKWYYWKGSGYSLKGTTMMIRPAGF
Assay: SPR (ProteOn XPR36), antibody captured on Protein A/G, ANGPT2 as analyte, 1:1 Langmuir fit
Experimental: The binding affinity to the various ANGPT2 analytes is determined by surface plasmon resonance (SPR) using a ProteOn XPR36 (Bio-Rad). Unless otherwise stated, all reagents are obtained from Bio-Rad. The running buffer for all assays and dilutions (except where stated) is phosphate buffered saline (PBS)/ethylenediamine tetraacetic acid (EDTA) with 0.01% Tween20 (PBS-T-EDTA). […]

# binder, kon, M⁻¹ s⁻¹
data = [
    ("ANGPT2-opt-1 (humanized) (antibody, human IgG1, kappa, V domains shown, also called Ang2-opt-1) VH: QVQLVQSGAEVKKPGSSVKVSCKASGYIFIDYFINWVRQAPGQGLEWMGKIGPGSGSSSSNEKFKGRVTITADKSTSTAYMELSSLRSEDTAVYYCAREAFDYEGDYYGMAYWGQGTLVTVSS VL: EIVMTQSPATLSVSPGERATLSCKSSQSLLASGNQKNFLAWYQQKPGQAPRLLIYGASTRESGIPARFSGSGSGTEFTLTISSLQSEDFAVYYCQNDHSYPITFGQGTKLEIKR", 152000),
    ("ANGPT2-opt-2 (humanized) (antibody, human IgG1, kappa, V domains shown, also called Ang2-opt-2; ANGP12-opt-2) VH: QVQLVQSGAEVKKPGSSVKVSCKASGYIFIEYFINWVRQAPGQGLEWMGKIGPGSGSSSSNEKFKGRVTITADKSTSTAYMELSSLRSEDTAVYYCAREAFDYEGDYYGMAYWGQGTLVTVSS VL: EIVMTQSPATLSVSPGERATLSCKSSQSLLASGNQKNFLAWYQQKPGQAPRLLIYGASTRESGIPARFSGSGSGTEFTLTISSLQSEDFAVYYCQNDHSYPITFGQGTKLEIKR", 135000),
    ("chimeric lead CL-209881 (antibody, V domains shown, Chimeric antibody with murine variable domains; the constant regions of the tested antibody are not) VH: QVQLKQSGAELVKPGSSVKISCRASGYIFIDYFINWVKQRPGQGLEWIGKIGPGSGSSSSNEKFKGKATLTADKSSSTAYMQLSSLTSEDSAVYFCAREAFDYDGDYYGMAYWGQGTSVTVSS VL: DIVMTQSPSSLSVSAGEKVTMSCKSSQSLLNSGNQKNFLAWYQQKPGQPPKLLIYGASTRESGVPDRFTGSGSGTDFTLTITSVQAEDLAVYYCQNDHSYPITFGSGTKLEIK", 164000),
    ("ANGPT2-opt-31 (humanized) (antibody, human IgG1, kappa, V domains shown, also called Ang2-opt-31) VH: QVQLVQSGAEVKKPGSSVKVSCKASGYIFIDYFINWVRQAPGQGLEWMGKIGPGSGSSSSNEKFKGRVTITADKSTSTAYMELSSLRSEDTAVYYCAREAFDYDGDYYGMAYWGQGTLVTVSS VL: EIVMTQSPATLSVSPGERATLSCKSSQSLLSSGNQKSFLAWYQQKPGQAPRLLIYGASTRESGIPARFSGSGSGTEFTLTISSLQSEDFAVYYCQNDHSYPITFGQGTKLEIKR", 135000),
    ("ANGPT2-opt-19 (humanized) (antibody, human IgG1, kappa, V domains shown, also called Ang2-opt-19) VH: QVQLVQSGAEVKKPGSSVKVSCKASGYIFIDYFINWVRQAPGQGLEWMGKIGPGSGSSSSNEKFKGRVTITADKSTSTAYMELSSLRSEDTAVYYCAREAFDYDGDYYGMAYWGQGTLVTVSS VL: EIVMTQSPATLSVSPGERATLSCRASQSVLSSGNQKSFLAWYQQKPGQAPRLLIYGASTRETGIPARFSGSGSGTEFTLTISSLQSEDFAVYYCQQDHSYPITFGQGTKLEIKR", 87700),
    ("ANGPT2-opt-13 (humanized) (antibody, human IgG1, kappa, V domains shown, also called Ang2-opt-13; ANGPT-opt-13) VH: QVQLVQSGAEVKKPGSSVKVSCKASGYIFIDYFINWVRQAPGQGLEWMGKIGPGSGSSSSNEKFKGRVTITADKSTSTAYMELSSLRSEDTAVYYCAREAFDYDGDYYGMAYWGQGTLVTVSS VL: EIVMTQSPATLSVSPGERATLSCKSSQSLLSSGNQKSFLAWYQQKPGQAPRLLIYGASTRETGIPARFSGSGSGTEFTLTISSLQSEDFAVYYCQNDHSYPITFGQGTKLEIKR", 142000),
]
